B1: TPR t1 (parent)
chain: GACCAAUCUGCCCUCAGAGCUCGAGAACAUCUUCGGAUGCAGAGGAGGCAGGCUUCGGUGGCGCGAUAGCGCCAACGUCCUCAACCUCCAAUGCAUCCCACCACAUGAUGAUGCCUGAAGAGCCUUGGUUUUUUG

Variants of: B1
ASSAY PROCEDURE: polymerase ribozyme fitness, log enrichment relative to wild type (log ratio); higher = more active; in vitro selection for triplet polymerase activity
Overview of reported polymerase ribozyme fitness (log ratio) across a group of variants:
Just the number.

1. GACCAAUCUGCCCUCAGAGUUCGAGAACAUCUUCGGAUGCAGAGGAGGCAGGCUUCGGUGGCACGAUAGCGCCAACGUCCUCAACCUCCAAUGCAGCCCACCACAUGAUGAUGCCUGAAGAGCCUUGGUUUUUUG: -3.22
2. GACCAAUCUGCCCUCAGAGCUCGAGUACAUCUUCGGAUGUAGAGGAGGCAGGCUUCGGUGGCGUGAUAGCGCCAACGUCCUCAACCUCCAAUGCAUCCCACCACAUGAUGAUGCCUGAAGAGCCUUGGUUUUUUG: -3.97
3. GUCCAAUUUGGCCUCAGAGCUCGAGAACAUCUUCGGAUGCAGAGGAGGCAGGCUUCGGUGGCGCGAUAGCGACAACGUCCUCAACCUCCAAUGCAUCCCACCACAUGAUGAUGCCUGAAGAGCCUUGGUUUUUUG: -0.286
4. GACUAAUCUGCCCUCAGAGCUCGAGAACAUCUUCGGAUGCAGAGGAGGCAGGCUUCGGUGGCGCGAUAGGGCCAACGUCCUCAACCUCCAAUGCAUCCCACCACAUGAUGAUGCCUGAAGAGCCUUGGUUUUUUG: -2.23
5. GACCAAUCUGCCCUCAGAGCUCGAGAACAUCUUCGGAUGCAGAGGAGGCAGGCUUAGGUGGCGCGAUAGCGCCAACGUCCUCAACCUCCAAUGCAUUCCACCACAUGAUGAUGCCUGAAGAGCCUUGGUUUUUUG: -1.33
6. GACCAAUCUGCCCUCAGAGCUCGAGAACAUCUUCGGAUGCAGAGGAGGCAGGCUUCGGUGGCGCGAUAGCGCCAACUUCCUCAACCUCCAAUGCAUCCCACCACAUGAUGAUGCCUGAAGAGUCUUGGUUUUUUG: 1.47
7. GACCAAUCUGCCCUCAGAGCUCGAGAACAUCUUCGGAUGCAGAGGAGGCAGGCUUCGGUGUCGCGAUAGCGCCAACGUCCUCAACCUCCAAUGCAUCCCACCACAUGAUGAUGCCUGAAGAGCCUUGGCUUUUUG: -0.253
8. GAACAAUCUGCCCUCAGAGCUCGAGAACAUCUUCGGAUGCAGAGGAGGCAGGCUUCGGUGGCGCGAUAGCGCCAACGUCCUCAACCUCCAAUGCAUCCCACCACAUGAUGAUGCCCGAAGAGCCUUGGUUUUUUG: -2.44
9. GACCAAUCUGCCCUCAGAGCUCGAGAACAUCUUCGGAUGCAGAGGAGGCAGGCUUCGGUGACGCGAUAGCGCCAACGUCCUCAACCUGCAAUGCAUCGCACCACAUGAUGAUGCCUGAAGAGGCUUGGUUUUUUG: -6.3
10. GACCAAUCUGCCCUCAGAGCUCGAGAACAUCUUCGGAGGCAGAGGAGGCAGGCUUCGGUGGCGUGAUAGCGCCAACGUCGUCAACCUCCAAUGCAUCCCACCACAUGAUGAUGCCUGAAGAGCCUUGGUUCUUUG: -6.8

*Q* Give its polymerase ribozyme fitness (log ratio) value. Item: `GACCAAUCUGCCCUCAGAGCUCGAGAACAUCUUCGGAUGCAGAGGAUGCAGGCUUCGGUGGCGCGAUAGCGCCAACGUCCUCAACCUCCAAGGCAUCCCACCACAUGAUGAUGCCUCAAGAGCCUUGGUUUUUUG`
*A* -7.27

*Q* So what does the record say about polymerase ribozyme fitness (log ratio) for `GACCAAUCUGCCCUCAGAGCUCGAGAUCAUCUUCGGAUGCAGAGGAGGCAGGCUUCGGUGCCGCGAUAGCGCCAACGUCCUCAACCUCCAAUGCAUCCCACCACAUGAUGAUGCCUGAAGAGCCUUGGUUUUUUG` ?
*A* -5.97

*Q* Can you share its polymerase ribozyme fitness (log ratio)? I mean this variant: `GACCAAUCUGCCCUCAGACCUCGAGAACAUCUUCGGAUGCAGAGGAGGCAGGCUUCGCUGGCGCGAUAGCGCCAUCGUCCUGAACCUCCAAUGCAUCCCACCACAUGAUGAUGCCUGAAGAGCCUUGGUUUUUUG`
*A* -3.28

*Q* If you can, please state the reported polymerase ribozyme fitness (log ratio) value of `GACCAAUCUGCCCUCAGAGCUCGAGAACAUCUUCGUAUGCAGAGGAGGCAGGCUUCGGUGGCGCGAUAGCGCCAACGUCCUCAAACUCCAAUGCAUCCCACCAAAUGAUGAUGCCUGAAGAGCCUUGGUUUUUUG` .
*A* -3.96

*Q* Name the reported polymerase ribozyme fitness (log ratio) value associated with the variant `GACCAAUAUGCCCUCAGAGCUCGAGAACAUCUUCGGAUGCAGAGGUGGCAGGCUUCGGUGGCGCGAUAGCGCCUACGUCCUCAACCUCCAAUGCAUCCCUCUACAUGAUGAUGCAUGAAGAGCCUUGGUUUUUUG`
*A* -2.37

*Q* For the variant `GACCAAUGUGCCCUUAGAGCUCGAGAACAUCUUCGGAUGCAGAGGAGGCAGGCUUCGGUGGCGCGAUAGCGCCAACGUCCUCAACCUCGAAUACAUCCCAUCACAUGAUGAUCUCUGAAGAGCCUUCGUUUUUUG` , what polymerase ribozyme fitness (log ratio) is on record?
*A* -3.86

*Q* Which polymerase ribozyme fitness (log ratio) value belongs to `GACCAAUCUGCCCUCAGAGCUCGAGAACAUCUUCGGAUGCAGAGGAGGCAGGCUUCGGUGACGCGAUAGCGCCAACGUCCUCAACCUCCAAUGCAUCCCAACACAUGAUGAUGCCAGAAGAGCCUUGCUUUUUUG` ?
*A* -6.04

*Q* Can you look up the measured polymerase ribozyme fitness (log ratio) of `GACCAAUCUGCCCUCAGAGCUCGAGAACAUCUUCGGAUGAAGAGGAGGCAGGCUUCGGUGGCGCGAUAGCGCCAACGUCCUCAACCUCCAAUGCAUCCCACCACGUGAUGAUGCCUGAAGAGCCUUGGUUUUUUG` for me?
*A* -4.43

*Q* Field request: polymerase ribozyme fitness (log ratio) | item: `GACCAAUCUGCCCUCAGAGCUCGAGAACAUCUUCGGAUGCAGAGGAGGCAGGCUUCGGUGGCGUGAUAGCGCCAACGUCCUCAACCUCCAAUGCAUCCCACCAAAUGAUGAUGCCUGAAAAGCCUUGGUUUUUUG`
*A* -0.809
